All values here come from ChEMBL document CHEMBL4376853.

Parameter log10(IC50): see the listing below.
# system name: UniProt Q16678
# Sequence (Q16678 whole entry): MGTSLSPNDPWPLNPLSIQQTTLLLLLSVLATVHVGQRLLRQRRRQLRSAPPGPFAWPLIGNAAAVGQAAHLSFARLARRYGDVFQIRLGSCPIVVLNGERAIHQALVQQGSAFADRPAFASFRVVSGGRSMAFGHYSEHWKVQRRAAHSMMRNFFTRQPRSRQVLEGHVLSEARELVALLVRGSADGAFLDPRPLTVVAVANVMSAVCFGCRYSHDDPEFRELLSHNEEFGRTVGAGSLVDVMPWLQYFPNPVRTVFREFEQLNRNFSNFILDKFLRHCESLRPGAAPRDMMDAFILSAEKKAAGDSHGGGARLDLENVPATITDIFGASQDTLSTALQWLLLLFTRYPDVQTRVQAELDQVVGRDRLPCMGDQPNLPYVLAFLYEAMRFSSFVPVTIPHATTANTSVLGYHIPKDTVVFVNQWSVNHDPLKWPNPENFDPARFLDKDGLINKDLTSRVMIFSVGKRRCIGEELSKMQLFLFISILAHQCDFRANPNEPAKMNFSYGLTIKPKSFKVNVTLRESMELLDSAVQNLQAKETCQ
# experimental details: Inhibition of human recombinant CYP1B1 using 7-ethoxyresorufin as substrate in presence of glucose-6-phosphate, glucose-6-phosphate dehydrogenase and NADPH-generating system incubated for 35 mins by fluorometry
metric name: log10(IC50) (log10 of the value in nM)

smiles representation	log10(IC50)
COc1cccc(-c2cc(=O)c3ccc4ccccc4c3o2)c1	0.58
O=C1C=C(c2ccccc2)S(=O)(=O)c2c1ccc1ccccc21	2.35
O=c1cc(-c2cc(Cl)cc(Cl)c2)oc2c1ccc1ccccc12	0.62
O=c1cc(-c2ccccc2Cl)sc2c1ccc1ccccc12	1.95
COc1ccc(-c2cc(=O)c3ccc4ccccc4c3o2)cc1	0.86
O=c1cc(-c2ccccc2F)oc2c1ccc1ccccc12	0.52
O=c1cc(-c2ccc(Cl)cc2)oc2c1ccc1ccccc12	0.62
O=c1cc(-c2cccc(O)c2)oc2c1ccc1ccccc12	1.17
S=c1cc(-c2cccc(Cl)c2)oc2c1ccc1ccccc12	0.97
CN(C)c1cccc(-c2cc(=O)c3ccc4ccccc4c3o2)c1	0.61
COc1cc(-c2cc(=O)c3ccc4ccccc4c3o2)cc(OC)c1OC	0.71
O=c1cc(-c2ccccc2Cl)oc2c1ccc1ccccc12	1.33
CN1CCN(c2cc(Cl)cc(-c3cc(=O)c4ccc5ccccc5c4o3)c2)CC1	1.68
COc1cc(-c2cc(=S)c3ccc4ccccc4c3o2)cc(OC)c1OC	1.27
O=c1cc(-c2cccc(Cl)c2)oc2c1ccc1ccccc12	-0.31
O=c1cc(-c2ccccc2)sc2c1ccc1ccccc12	1.76
O=c1cc(-c2cccc(C(F)(F)F)c2)oc2c1ccc1ccccc12	-0.28
O=c1cc(-c2cccc(Cl)c2)sc2c1ccc1ccccc12	1.61

---

# Organism: Homo sapiens
# experimental details: Selectivity index, ratio of IC50 for human recombinant CYP1A2 to IC50 for human recombinant CYP1B1 using 7-ethoxyresorufin as substrate in presence of glucose-6-phosphate, glucose-6-phosphate dehydrogenase and NADPH-generating system by fluorometry
Ratio IC50 below 5 gives criterion not met; Ratio IC50 at or above it gives criterion met.

smiles representation	class label
O/N=c1\cc(-c2cccc(Cl)c2)oc2c1ccc1ccccc12	criterion met
O=c1cc(-c2ccccn2)oc2c1ccc1ccccc12	criterion met
O=c1cc(-c2cccc(N3CCOCC3)c2)oc2c1ccc1ccccc12	criterion met
O=c1cc(-c2ccc(Cl)cc2)sc2c1ccc1ccccc12	criterion not met
S=c1cc(-c2ccc(Cl)cc2)oc2c1ccc1ccccc12	criterion met

---

Below, each entry is listed alongside its reported Ratio IC50.
# Organism: Homo sapiens
# experimental details: Selectivity index, ratio of IC50 for human recombinant CYP1A1 to IC50 for human recombinant CYP1B1 using 7-ethoxyresorufin as substrate in presence of glucose-6-phosphate, glucose-6-phosphate dehydrogenase and NADPH-generating system by fluorometry

smiles representation	Ratio IC50
O=C1C=C(c2ccccc2)S(=O)(=O)c2c1ccc1ccccc21	0.6
CN1CCN(c2cccc(-c3cc(=O)c4ccc5ccccc5c4o3)c2)CC1	1.4
O=c1cc(-c2cccc(Cl)c2)sc2c1ccc1ccccc12	0.3
O=c1cc(-c2ccc(F)cc2)oc2c1ccc1ccccc12	2.5
O/N=c1\cc(-c2cccc(Cl)c2)oc2c1ccc1ccccc12	9.1
S=c1cc(-c2ccc(Cl)cc2)oc2c1ccc1ccccc12	6

---

# system name: Cytochrome P450 1A2 (Homo sapiens)
# experimental details: Inhibition of human recombinant CYP1A2 using 7-ethoxyresorufin as substrate in presence of glucose-6-phosphate, glucose-6-phosphate dehydrogenase and NADPH-generating system incubated for 50 mins by fluorometry
pIC50: −log10 of the molar value.
So basically: pIC50 at 7 or higher? That is met. Lower than 7? That is not met.

smiles representation	class label
COc1cccc(-c2cc(=O)c3ccc4ccccc4c3o2)c1	not met
O=c1cc(-c2ccccc2Cl)sc2c1ccc1ccccc12	not met
O=c1cc(-c2ccccn2)oc2c1ccc1ccccc12	met
S=c1cc(-c2ccc(Cl)cc2)oc2c1ccc1ccccc12	met
O=C1C=C(c2cccc(Cl)c2)S(=O)(=O)c2c1ccc1ccccc21	not met
O=c1cc(-c2ccc(Cl)cc2)oc2c1ccc1ccccc12	met
O=c1cc(-c2ccncc2)oc2c1ccc1ccccc12	met
O=c1cc(-c2ccccc2)sc2c1ccc1ccccc12	not met
COc1cc(-c2cc(=S)c3ccc4ccccc4c3o2)cc(OC)c1OC	not met
Fc1ccccc1-c1cc(=S)c2ccc3ccccc3c2o1	met
O=c1cc(-c2ccc(F)c(F)c2)oc2c1ccc1ccccc12	met
O=c1cc(-c2cccc(Cl)c2)sc2c1ccc1ccccc12	not met
CN1CCN(c2cccc(-c3cc(=O)c4ccc5ccccc5c4o3)c2)CC1	not met
O/N=c1\cc(-c2cccc(Cl)c2)oc2c1ccc1ccccc12	not met
O=C1C=C(c2ccccc2)S(=O)(=O)c2c1ccc1ccccc21	not met
O=c1cc(-c2ccccc2F)sc2c1ccc1ccccc12	not met
S=c1cc(-c2cccc(Cl)c2)oc2c1ccc1ccccc12	not met
CN(C)c1cccc(-c2cc(=O)c3ccc4ccccc4c3o2)c1	not met
O=c1cc(-c2ccc(F)cc2)oc2c1ccc1ccccc12	met
CN1CCN(c2cc(Cl)cc(-c3cc(=O)c4ccc5ccccc5c4o3)c2)CC1	not met
O=c1cc(-c2cccc(N3CCOCC3)c2)oc2c1ccc1ccccc12	not met
COc1cc(Cl)cc(-c2cc(=O)c3ccc4ccccc4c3o2)c1	not met
Fc1ccc(-c2cc(=S)c3ccc4ccccc4c3o2)cc1	met
COc1cc(-c2cc(=O)c3ccc4ccccc4c3o2)cc(OC)c1OC	not met
O=c1cc(-c2cccnc2)oc2c1ccc1ccccc12	met
O=c1cc(-c2ccc(Cl)cc2)sc2c1ccc1ccccc12	not met
O=c1cc(-c2ccccc2F)oc2c1ccc1ccccc12	met
CN1CCN(c2ccc(-c3cc(=O)c4ccc5ccccc5c4o3)cc2)CC1	not met
S=c1cc(-c2ccccc2)oc2c1ccc1ccccc12	not met
COc1cccc(-c2cc(=S)c3ccc4ccccc4c3o2)c1	not met
O=c1cc(-c2ccc3ccccc3c2)oc2c1ccc1ccccc12	not met

---

# Species on record: Homo sapiens
# experimental details: Selectivity index, ratio of IC50 for human recombinant CYP1A2 to IC50 for human recombinant CYP1B1 using 7-ethoxyresorufin as substrate in presence of glucose-6-phosphate, glucose-6-phosphate dehydrogenase and NADPH-generating system by fluorometry
Below, each entry is listed alongside its reported Ratio IC50.
metric name: Ratio IC50

smiles representation	metric name	observed value
O=c1cc(-c2ccccc2Cl)sc2c1ccc1ccccc12	Ratio IC50	> 11.1
O=c1cc(-c2ccc3ccccc3c2)oc2c1ccc1ccccc12	Ratio IC50	> 20.7
O=c1cc(-c2ccccc2)sc2c1ccc1ccccc12	Ratio IC50	> 17.5
COc1cc(-c2cc(=S)c3ccc4ccccc4c3o2)cc(OC)c1OC	Ratio IC50	> 53.2

---

# system name: Cytochrome P450 1A2 (Homo sapiens, UniProt P05177)
# Sequence (P05177 whole entry): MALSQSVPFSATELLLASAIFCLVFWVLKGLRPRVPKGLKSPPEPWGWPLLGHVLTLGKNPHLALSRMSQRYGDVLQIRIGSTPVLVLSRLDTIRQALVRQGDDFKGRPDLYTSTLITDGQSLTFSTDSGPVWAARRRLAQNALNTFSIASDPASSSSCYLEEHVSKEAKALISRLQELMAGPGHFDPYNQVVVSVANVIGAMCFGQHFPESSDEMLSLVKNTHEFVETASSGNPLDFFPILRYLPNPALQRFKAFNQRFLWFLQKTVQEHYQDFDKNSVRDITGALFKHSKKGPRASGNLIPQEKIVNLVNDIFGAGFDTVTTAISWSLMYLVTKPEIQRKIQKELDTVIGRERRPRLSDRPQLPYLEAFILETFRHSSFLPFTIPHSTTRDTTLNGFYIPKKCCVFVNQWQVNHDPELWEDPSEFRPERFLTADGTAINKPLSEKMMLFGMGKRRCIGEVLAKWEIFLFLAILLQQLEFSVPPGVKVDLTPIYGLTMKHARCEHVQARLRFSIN
# experimental details: Inhibition of human recombinant CYP1A2 using 7-ethoxyresorufin as substrate in presence of glucose-6-phosphate, glucose-6-phosphate dehydrogenase and NADPH-generating system incubated for 50 mins by fluorometry

smiles representation	system name	units of measure	IC50
O=c1cc(-c2cc(Cl)cc(Cl)c2)oc2c1ccc1ccccc12	Cytochrome P450 1A2 (Homo sapiens, UniProt P05177)	nM	157
O/N=c1\cc(-c2ccccc2)oc2c1ccc1ccccc12	Cytochrome P450 1A2 (Homo sapiens, UniProt P05177)	nM	74.6
O=c1cc(-c2cccc(Cl)c2)oc2c1ccc1ccccc12	Cytochrome P450 1A2 (Homo sapiens, UniProt P05177)	nM	73.6
Fc1cccc(-c2cc(=S)c3ccc4ccccc4c3o2)c1	Cytochrome P450 1A2 (Homo sapiens, UniProt P05177)	nM	134
COc1ccc(-c2cc(=O)c3ccc4ccccc4c3o2)cc1	Cytochrome P450 1A2 (Homo sapiens, UniProt P05177)	nM	98.2
O=c1cc(-c2cccc(F)c2)oc2c1ccc1ccccc12	Cytochrome P450 1A2 (Homo sapiens, UniProt P05177)	nM	62.2
O=c1cc(-c2cccc(O)c2)oc2c1ccc1ccccc12	Cytochrome P450 1A2 (Homo sapiens, UniProt P05177)	nM	91.5
O=c1cc(-c2ccccc2Cl)oc2c1ccc1ccccc12	Cytochrome P450 1A2 (Homo sapiens, UniProt P05177)	nM	113
O=c1cc(-c2cccc(C(F)(F)F)c2)oc2c1ccc1ccccc12	Cytochrome P450 1A2 (Homo sapiens, UniProt P05177)	nM	94.2
O/N=c1\cc(-c2ccc(Cl)cc2)oc2c1ccc1ccccc12	Cytochrome P450 1A2 (Homo sapiens, UniProt P05177)	nM	75.2
